# Test system: Pseudomonas aeruginosa
# assay-text: Antibacterial activity against Pseudomonas aeruginosa ATCC 9027 at 1 mg/ml after 24 hr by agar cup diffusion method
# Assay type: functional
# test-conditions: ATCC 9027, 24 h, read-out: DIZ
property-name: zone of inhibition at 1000 µg/mL (mm)
Give just the number in mm; leave the unit off.

Known results for molecules:
- molecule: "O=C(O)C(=O)/C=C/c1cn(-c2ccccc2)nc1-c1ccc(Br)cc1"
  zone of inhibition at 1000 µg/mL [mm]: 13
- molecule: "Cc1nn(-c2ccccc2)c(C)c1/C=C(\\Br)C(=O)O"
  zone of inhibition at 1000 µg/mL [mm]: 20
- molecule: "O=C1OC(c2ccccc2)C(Br)=C1O (configuration not stated)"
  zone of inhibition at 1000 µg/mL [mm]: 13.5
- molecule: "O=C1OC(c2cn(-c3ccccc3)nc2-c2ccccc2)C(Br)=C1O (configuration not stated)"
  zone of inhibition at 1000 µg/mL [mm]: 19
- molecule: "O=C(O)/C(Br)=C/c1ccc(Cl)cc1"
  zone of inhibition at 1000 µg/mL [mm]: 18
- molecule: "Cc1nn(-c2ccccc2)c(C)c1/C=C(\\I)c1nc2ccccc2[nH]c1=O"
  zone of inhibition at 1000 µg/mL [mm]: 17.5
- molecule: "O=C(COC1=C(Br)C(c2ccccc2)OC1=O)NCc1ccccc1 (configuration not stated)"
  zone of inhibition at 1000 µg/mL [mm]: 25
- molecule: "O=c1[nH]c2ccccc2nc1/C(I)=C/c1ccc(Cl)cc1"
  zone of inhibition at 1000 µg/mL [mm]: 16.5
- molecule: "O=C(O)C(=O)/C=C/c1cn(-c2ccccc2)nc1-c1ccccc1"
  zone of inhibition at 1000 µg/mL [mm]: 12
- molecule: "O=C(O)/C(Br)=C/c1cn(-c2ccccc2)nc1-c1ccc(Br)cc1"
  zone of inhibition at 1000 µg/mL [mm]: 18

Query: I'd like to know its zone of inhibition at 1000 µg/mL. The molecule in question is O=c1[nH]c2ccccc2nc1/C(Cl)=C/c1ccc(Cl)cc1
Response: 15

Query: Entry under review: COc1ccc(-c2nn(-c3ccccc3)cc2/C=C/C(=O)C(=O)O)cc1 . Reported zone of inhibition at 1000 µg/mL?
Response: 13

Reference for the values: ChEMBL document CHEMBL3044604
